Sourced from patent US11274100B2

test system: TE-8 cells
So basically, if GI50 comes in under 400 nM it's fulfilled, and if it's 400 nM or more it's not fulfilled.

For orientation, consider the following solved cases.
                                   molecule       category
0  [2H]C([2H])([2H])N(C(=O)C1(c2ccc(OC)cc2)CCC(F)(F)CC1)[C@H](CO)C(=O)Nc1ccc2[nH]ncc2n1 [Example 76]      fulfilled
1  COc1ncc(C2(C(=O)N3C[C@H](F)C[C@@H]3C(=O)Nc3ccc4[nH]ncc4n3)CCCC2)cn1 [Example 64]  not fulfilled
2  COc1ccc(C2(C(=O)N3C[C@H](F)C[C@@H]3C(=O)Nc3cccc4[nH]ncc34)CCCCO2)cc1 (single isomer, unassigned) [Example 44]  not fulfilled
3  COc1ccc(C2(C(=O)N3C[C@H](F)[C@@H](O)[C@@H]3C(=O)Nc3ccc4[nH]ncc4n3)CCC(F)(F)CC2)cc1 [Example 38]      fulfilled
4  COc1ccc(C(C)(C)C(=O)N2C[C@H](F)C[C@@H]2C(=O)Nc2ccc3[nH]ncc3n2)cc1 [Example 47]  not fulfilled

Continue with the next molecule.
IN: Check if GI50 falls below 400 nM for COc1ccc(C2(C(=O)N3CCC[C@@H]3C(=O)Nc3cccc4[nH]ncc34)CCCC2)cc1 [Example 1] .
OUT: not fulfilled
